Record: pIC50 reported on hydroxymethyldihydropteridine pyrophosphokinase (HMPPS) (Escherichia coli).
Sequence (P26281 whole entry): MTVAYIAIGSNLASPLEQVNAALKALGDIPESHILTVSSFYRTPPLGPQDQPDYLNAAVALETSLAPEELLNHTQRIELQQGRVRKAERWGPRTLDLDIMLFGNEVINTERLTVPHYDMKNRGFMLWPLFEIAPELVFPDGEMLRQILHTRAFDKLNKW
Counter-ions that a name gives are not always drawn.
# reply with the number alone; pIC50 is -log10 of concentration in mol/L

# COMPOUND, VALUE REPORTED
data = [
    ("CC1(C)Nc2nc(N)nc(O)c2N=C1C(Br)Br [the 6-dibromomethyl analogue, hydrobromide]", 4.60),
]

Please look at the following compound next.
Exercise: Item: CC1(C)Nc2nc(N)nc(O)c2N=C1CBr [hydrobromide] Test system: hydroxymethyldihydropteridine pyrophosphokinase (HMPPS) (Escherichia coli) Read-out: pIC50 Value: ?
Key: 5.30
